Data origin: paper PMC4811503

# System: HEL
# Experiment: MTT cytotoxicity assay
# Format: cell-based
# Experimental parameters: Homo sapiens, read-out: Selinexor IC50 (μM)
Experimental readout: IC50 (µM)
Response body: numeric value in µM, unit text excluded.

Case O=C(/C=C\n1cnc(-c2cc(C(F)(F)F)cc(C(F)(F)F)c2)n1)NNc1cnccn1 [Selinexor, selinexor] , HEL, IC50 recorded as 0.35

###

# Test system: nuclear export of the XPO1 cargo protein Rev-GFP in stably transfected U2OS cells
# Experiment: Rev-GFP assay (nuclear retention of Rev-GFP)
# Assay type: cell-based
# Experimental parameters: Homo sapiens, read-out: RevGFP Assay IC50 (μM), Rev-GFP U2OS, selinexor 4 hours, 72 hours post washout
Experimental readout: IC50 (µM)
Response body: numeric value in µM, unit text excluded.

In plain terms, O=C(/C=C\n1cnc(-c2cc(C(F)(F)F)cc(C(F)(F)F)c2)n1)NNc1cnccn1 [Selinexor, selinexor] has a documented IC50 of 6.8
